assay: NOVARTIS: Cytotoxicity against human hepatocellular carcinoma cell line (Huh7); type: toxicity, cell-based, Huh-7; settings: Huh7 cells (hepatocellular carcinoma cell line)
Below is a list of entries, each paired with its recorded CC50 value.

// CC50 lookup, molecule = Cc1ccn(C(=O)NCCNC(=O)Nc2ccc(Cc3ccc(NC(=O)NCCNC(=O)n4ccc(C)n4)cc3)cc2)n1 , result: > 10 µM

// CC50 lookup, molecule = CCN(CC)CCNc1nc2cc(OC)c(OC)cc2c2nc(-c3ccccc3)nn12 , result: 77.2 µM

// CC50 lookup, molecule = CCOc1ccc(C(=O)C[N+]2=C(C)c3ccc(C)n3CC2)cc1 , result: > 100 µM

// CC50 lookup, molecule = CC(=Cc1sc2ccc3occc3c2[n+]1CCO)C=C1Sc2ccc3ccoc3c2N1CCO.CCC(=Cc1sc2ccc3ccccc3c2[n+]1C)C=C1Sc2ccc3ccccc3c2N1C , result: > 10 µM

// CC50 lookup, molecule = Fc1ccccc1Nc1nc(NCc2ccccc2)c2ccccc2n1 , result: 8.86 µM

// CC50 lookup, molecule = Cc1cccc(NC(=O)c2cc(Cl)nc3ccccc23)c1 , result: > 100 µM

// CC50 lookup, molecule = CC(C)C[C@H](NC(=O)N1CCOCC1)C(=O)N[C@H](/C=C/S(=O)(=O)c1ccccc1)CCc1ccccc1 , result: 48.8 µM

// CC50 lookup, molecule = CC1=CC[C@@H](/C(C)=C/c2csc(C)n2)OC(=O)C[C@H](O)C(C)(C)C(=O)[C@H](C)[C@@H](O)[C@@H](C)CCC1 , result: 0.00621 µM

// CC50 lookup, molecule = Cc1ccn2c(NC(C)(C)CC(C)(C)C)c(-c3ccccc3OC(=O)C34CC5CC(CC(C5)C3)C4)nc2c1 , result: > 10 µM
